tested on: Echo9; assay: Plaque reduction assay Echo9; format: cell-based, human enterovirus B; settings: Enterovirus B; 50% reduction of plaque number, LLC-MK2 cells
Recorded Metric: EC50

// known answers, use as guide
{"Molecule": "CC(C)c1ccc(-c2nc3cc(F)c(F)cc3[nH]2)cc1", "Measured On": "Echo9", "Recorded Metric": "EC50", "Result": "> 100 µM"}
{"Molecule": "CC(C)c1ccc(-c2nc3cc(Cl)ccc3[nH]2)cc1", "Measured On": "Echo9", "Recorded Metric": "EC50", "Result": "8 µM"}
{"Molecule": "CC(C)c1ccc(-c2nc3cc(F)ccc3[nH]2)cc1", "Measured On": "Echo9", "Recorded Metric": "EC50", "Result": "> 29.5 µM"}
{"Molecule": "CC(C)(C)c1ccc(-c2nc3cc(Cl)ccc3[nH]2)cc1", "Measured On": "Echo9", "Recorded Metric": "EC50", "Result": "4 µM"}
{"Molecule": "CC(C)(C)c1ccc(-c2nc3cc(F)ccc3[nH]2)cc1", "Measured On": "Echo9", "Recorded Metric": "EC50", "Result": "> 100 µM"}
{"Molecule": "CC(C)(C)c1ccc(-c2nc3cc(Cl)c(Cl)cc3[nH]2)cc1", "Measured On": "Echo9", "Recorded Metric": "EC50", "Result": "> 12 µM"}

// EC50 lookup, key: "CC(C)c1ccc(-c2nc3ccccc3[nH]2)cc1" > 6 µM

// EC50 lookup, key: "CC(C)(C)c1ccc(-c2nc3cc(F)c(F)cc3[nH]2)cc1" > 100 µM

// EC50 lookup, key: "CC(C)(C)c1ccc(-c2nc3ccccc3[nH]2)cc1" > 6.5 µM

// EC50 lookup, key: Cc1cc(CCCOc2c(C)cc(-c3noc(C(F)(F)F)n3)cc2C)on1 [Plc, Pleconaril, reference compound] 0.1 µM

// EC50 lookup, key: "CC(C)c1ccc(-c2nc3cc(Cl)c(Cl)cc3[nH]2)cc1" > 7 µM
